System: B-ALL cell lines
Assay: CellTiter-Glo cell viability, all B-ALL cell lines together
Type: cell-based, human
Settings: Homo sapiens; mean of converged EC50s of six B-ALL lines; read-out: Compound EC50, Mean B-ALL (cell viability)
Description: Cell viability was determined with the CellTiter-Glo® Luminescent Cell Viability Assay (Promega). Greiner 655083 had 100 μL cRPMI +/− 4×10^4 cells/well, and dose response curves of compounds ranged from 100 μM to 1.53 nM (1% DMSO). Wells with DMSO-only served as negative controls. Samples were incubated overnight, and the assay was completed according to the manufacturer's protocol. Plates were analyzed using a Victor^3V™ 1420 Multilabel Counter (Perkin Elmer).
Measured Property: pEC50
Conceptually, pEC50 converts a concentration in mol/L into minus its log10.

Known pEC50 results, listed for orientation:
C[C@H]1[C@H](OC(=O)CCC(=O)O)O[C@@H]2O[C@@]3(C)CC[C@H]4[C@H](C)CC[C@@H]1[C@@]24OO3 [Artesunate]; 3.82
O=C1C=C2C(=CCOC2O)O1 (stereo not shown); 6.42
Oc1c(I)cc(Cl)c2cccnc12; 4.45

Bench note, B-ALL cell lines: entry C[C@H]1[C@@H](O)O[C@@H]2O[C@@]3(C)CC[C@H]4[C@H](C)CC[C@@H]1[C@@]24OO3 [Dihydroartemisinin] , its pEC50 = 4.13

Bench note, B-ALL cell lines: entry C=C1C(=O)O[C@H]2[C@H]1CC/C(C)=C/CC[C@@]1(C)O[C@@H]21 [Parthenolide] , its pEC50 = 5.75

Bench note, B-ALL cell lines: entry `C[C@H]1COC2=C1C(=O)C(=O)c1c2ccc2c1CCCC2(C)C` , its pEC50 = 4.17

Bench note, B-ALL cell lines: entry CN(C)C(=O)CCSC(SCCC(=O)O)c1cccc(/C=C/c2ccc3ccc(Cl)cc3n2)c1 (stereo not shown) , its pEC50 = 3.78

###

test system: 697; test: CellTiter-Glo cell viability; format: cell-based; conditions: Homo sapiens; overnight, n = 6, ± SEM; read-out: Compound EC50, 697 (cell viability)
Measured Property: pEC50
Conceptually, pEC50 converts a concentration in mol/L into minus its log10.

O=C1C=C2C(=CCOC2O)O1 (stereo not shown) [Patulin]; 6.89
Oc1c(I)cc(Cl)c2cccnc12 [Clioquinol]; 4.73
C[C@H]1COC2=C1C(=O)C(=O)c1c2ccc2c1CCCC2(C)C [Cryptotanshinone]; 4.17

Proceeding to the next compound to report its pEC50.
Form field pEC50, entry C=C1C(=O)O[C@H]2[C@H]1CC/C(C)=C/CC[C@@]1(C)O[C@@H]21 [Parthenolide] : 5.95

###

Quick reference for EC50 among some molecules
test system: primary B-ALL patient samples; test: CellTiter-Glo cell viability of primary ALL patient samples ex vivo; format: cell-based, human; settings: Homo sapiens; primary B-ALL sample, duplicate, ± SEM; read-out: Compound EC50 (Patient no. 1), cell viability
Give your result in µM as a bare value.

Known EC50 results, listed for orientation:
C[C@H]1[C@H](OC(=O)CCC(=O)O)O[C@@H]2O[C@@]3(C)CC[C@H]4[C@H](C)CC[C@@H]1[C@@]24OO3 [Artesunate]; 116
C=C1C(=O)O[C@H]2[C@H]1CC/C(C)=C/CC[C@@]1(C)O[C@@H]21 [Parthenolide]; 4.72
C[C@H]1COC2=C1C(=O)C(=O)c1c2ccc2c1CCCC2(C)C [Cryptotanshinone]; 12.9

Form field EC50, entry Oc1c(I)cc(Cl)c2cccnc12 [Clioquinol] : 60.1

Form field EC50, entry O=C1C=C2C(=CCOC2O)O1 (stereo not drawn) [Patulin] : 1.79

Form field EC50, entry CN(C)C(=O)CCSC(SCCC(=O)O)c1cccc(/C=C/c2ccc3ccc(Cl)cc3n2)c1 (stereo not drawn) [MK-571] : 298

###

test system: Sup B15; experiment: CellTiter-Glo cell viability; assay type: cell-based; details: Homo sapiens, overnight, n = 6, ± SEM, read-out: Compound EC50, Sup B15 (cell viability)
Checkbox rule: EC50 lower than 20 µM = met; EC50 not lower than 20 µM = not met.

Worked examples follow.
O=C1C=C2C(=CCOC2O)O1 (stereo not shown); met
C[C@H]1COC2=C1C(=O)C(=O)c1c2ccc2c1CCCC2(C)C; not met
CN(C)C(=O)CCSC(SCCC(=O)O)c1cccc(/C=C/c2ccc3ccc(Cl)cc3n2)c1 (stereo not shown); not met
C[C@H]1[C@H](OC(=O)CCC(=O)O)O[C@@H]2O[C@@]3(C)CC[C@H]4[C@H](C)CC[C@@H]1[C@@]24OO3 [Artesunate]; not met
C=C1C(=O)O[C@H]2[C@H]1CC/C(C)=C/CC[C@@]1(C)O[C@@H]21 [Parthenolide]; met
C[C@H]1[C@@H](O)O[C@@H]2O[C@@]3(C)CC[C@H]4[C@H](C)CC[C@@H]1[C@@]24OO3 [Dihydroartemisinin]; not met

Turning now to a further compound:
Lookup: Hello, I'm reviewing records and need to know if EC50 of `Oc1c(I)cc(Cl)c2cccnc12` is below 20 µM. Could you check?
Found: met

###

test system: MHH Call 3; test: CellTiter-Glo cell viability; assay type: cell-based; details: Homo sapiens; overnight, n = 6, ± SEM; read-out: Compound EC50, MHH Call 3 (cell viability)
Quick reference for EC50 among some compounds
Give your result in µM as a bare value.

Known EC50 results, listed for orientation:
Oc1c(I)cc(Cl)c2cccnc12 [Clioquinol]; 67.1
C[C@H]1COC2=C1C(=O)C(=O)c1c2ccc2c1CCCC2(C)C [Cryptotanshinone]; 126
O=C1C=C2C(=CCOC2O)O1 (stereo not shown) [Patulin]; 0.53

Proceeding to the next compound to report its EC50.
Form field EC50, entry C=C1C(=O)O[C@H]2[C@H]1CC/C(C)=C/CC[C@@]1(C)O[C@@H]21 [Parthenolide] : 1.97

###

Quick reference for EC50 among some compounds
system: Nalm 6; assay: CellTiter-Glo cell viability; format: cell-based; settings: Homo sapiens, overnight, n = 6, ± SEM, read-out: Compound EC50, Nalm 6 (cell viability)

Known EC50 results, listed for orientation:
Oc1c(I)cc(Cl)c2cccnc12 [Clioquinol]; 24.8 µM
C[C@H]1COC2=C1C(=O)C(=O)c1c2ccc2c1CCCC2(C)C [Cryptotanshinone]; 70.2 µM
O=C1C=C2C(=CCOC2O)O1 (stereo not shown) [Patulin]; 0.07 µM

Proceeding to the next compound to report its EC50.
Form field EC50, entry C=C1C(=O)O[C@H]2[C@H]1CC/C(C)=C/CC[C@@]1(C)O[C@@H]21 [Parthenolide] : 0.72 µM

###

test system: U937 cells; assay: MultiCyt 4-Plex apoptosis assay; assay type: cell-based, human; settings: Homo sapiens, U-937, 24 h, mean of converged EC50s, read-out: Compound EC50, Means (of the apoptosis endpoints)
Measured Property: EC50
Mention the unit after the number when you answer.

Known EC50 results, listed for orientation:
C[C@H]1COC2=C1C(=O)C(=O)c1c2ccc2c1CCCC2(C)C [Cryptotanshinone]; 25.8 µM
C[C@H]1[C@@H](O)O[C@@H]2O[C@@]3(C)CC[C@H]4[C@H](C)CC[C@@H]1[C@@]24OO3 [Dihydroartemisinin]; 16.4 µM
Oc1c(I)cc(Cl)c2cccnc12 [Clioquinol]; 26.7 µM
O=C1C=C2C(=CCOC2O)O1 (stereo not drawn) [Patulin]; 4.95 µM
C[C@H]1[C@H](OC(=O)CCC(=O)O)O[C@@H]2O[C@@]3(C)CC[C@H]4[C@H](C)CC[C@@H]1[C@@]24OO3 [Artesunate]; 24.6 µM

Form field EC50, entry C=C1C(=O)O[C@H]2[C@H]1CC/C(C)=C/CC[C@@]1(C)O[C@@H]21 [Parthenolide] : 7.44 µM

###

system: U937 cells; test: MultiCyt 4-Plex apoptosis assay; assay type: cell-based, human; details: Homo sapiens, U-937, 24 h, n = 4, ± SEM, read-out: Compound EC50, Mitochondrial depolarization
Quick reference for pEC50 among some compounds
Conceptually, pEC50 converts a concentration in mol/L into minus its log10.

Known pEC50 results, listed for orientation:
C[C@H]1COC2=C1C(=O)C(=O)c1c2ccc2c1CCCC2(C)C; 4.68
C[C@H]1[C@@H](O)O[C@@H]2O[C@@]3(C)CC[C@H]4[C@H](C)CC[C@@H]1[C@@]24OO3 [Dihydroartemisinin]; 5.04
O=C1C=C2C(=CCOC2O)O1 (stereo not drawn); 5.76
Oc1c(I)cc(Cl)c2cccnc12; 4.75
C[C@H]1[C@H](OC(=O)CCC(=O)O)O[C@@H]2O[C@@]3(C)CC[C@H]4[C@H](C)CC[C@@H]1[C@@]24OO3 [Artesunate]; 4.59

Proceeding to the next compound to report its pEC50.
Form field pEC50, entry C=C1C(=O)O[C@H]2[C@H]1CC/C(C)=C/CC[C@@]1(C)O[C@@H]21 [Parthenolide] : 5.26

These measurements were taken from paper PMC5085131.
